# Test system: CRL-7250
# Procedure Details: Cytotoxic Profiling of Annotated Libraries Using Quantitative High-Throughput Screening (AID 1296008); also: % is scaled to controls: 0 for no effect and ±100 for the full control effect; nearly all actives have a fitted effect of over 60% in size
# Condition: Five cell lines viability, CellTiter-Glo ATP luminescence, 48-72 h; hits give low values
Records with an inconclusive call do not appear.
Parameter: max response (%)
The reply should contain only the number, in %.

The cases that follow already have their max response on record.
INSERT INTO measurements (compound, parameter, assay_value) VALUES
  ('Fc1ccc(-c2c3cccc(C(F)(F)F)c3nn2Cc2ccc(F)cc2Cl)cc1', 'max response', -3.03),
  ('CC(=O)OC1CC2C(C)(C)C(=O)C=CC2(C)C2CC(=O)C3=C(CCC3C3=CC(O)OC3=O)C12C (configuration not stated)', 'max response', 3.26),
  ('CC(C)=CCC[C@](C)(O[C@@H]1O[C@H](CO[C@@H]2O[C@@H](CO)[C@H](O)[C@H]2O)[C@@H](O)[C@H](O)[C@H]1O)[C@H]1CC[C@]2(C)[C@@H]1[C@H](O)C[C@@H]1[C@@]3(C)CC[C@H](O[C@@H]4O[C@H](CO)[C@@H](O)[C@H](O)[C@H]4O[C@@H]4O[C@H](CO)[C@@H](O)[C@H](O)[C@H]4O)C(C)(C)[C@@H]3CC[C@]12C', 'max response', 2.09),
  ('COC(=O)C1C(O)CCC2CN3CCc4c([nH]c5ccccc45)C3CC21 (configuration not stated)', 'max response', 2.68),
  ('C/C=C/C=C/C=C/C(=O)O[C@@H]1[C@@H](OC)C2=C(C(=O)N(C(CCC(=O)O)C(=O)O)C2)[C@@]2(C)CCCC(C)(C)[C@H]12 (some centres not stated)', 'max response', -4.83),
  ('C/C=C(\C)C(=O)O[C@H]1C=CC(=O)O[C@H]1/C=C/[C@H](O)[C@@H](C)O', 'max response', 4.14);

Could you now consider this next compound?
Exercise: Sample CCCC/C=C\CCCCCc1cc(=O)c2ccccc2n1C — what was its max response?
Solution: -5.2
